Biological target: T1, monkey MSLN full-length protein (NCBI: XP_028696439.1) expressed on HEK293T-monkey MSLN cells (monkey)
T1 construct: Whole encoded precursor
T1 chain: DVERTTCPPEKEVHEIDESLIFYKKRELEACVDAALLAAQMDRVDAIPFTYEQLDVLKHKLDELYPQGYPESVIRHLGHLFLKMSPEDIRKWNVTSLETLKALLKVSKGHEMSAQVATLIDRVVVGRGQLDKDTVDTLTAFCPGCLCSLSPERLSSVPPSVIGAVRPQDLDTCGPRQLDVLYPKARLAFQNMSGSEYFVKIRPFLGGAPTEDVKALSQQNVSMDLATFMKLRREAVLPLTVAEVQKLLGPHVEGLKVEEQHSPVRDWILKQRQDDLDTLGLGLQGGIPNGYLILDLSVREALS
Test: FACS on HEK293T-monkey MSLN cells;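 also: flow cytometry binding of chimeric antibodies to the cells, with a 2 h incubation on ice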
Give Maximum mean fluorescence intensity for every item shown.
Give your answer as a number; write no unit.

Requested read-out: Maximum mean fluorescence intensity. Entry: S009-F7.11.11 (antibody, human IgG1, kappa, V domains shown, human-murine chimeric antibody, human IgG1/kappa constant regions) VH: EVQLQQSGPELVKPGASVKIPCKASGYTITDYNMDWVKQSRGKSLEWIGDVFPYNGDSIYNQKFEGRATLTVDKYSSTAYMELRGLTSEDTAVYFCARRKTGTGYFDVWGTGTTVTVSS VL: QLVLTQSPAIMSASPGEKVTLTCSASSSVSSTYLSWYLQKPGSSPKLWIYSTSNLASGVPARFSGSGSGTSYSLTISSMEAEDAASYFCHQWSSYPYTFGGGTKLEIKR
49500

Requested read-out: Maximum mean fluorescence intensity. Entry: S009-F7.23.19 (antibody, human IgG1, kappa, V domains shown, human-murine chimeric antibody, human IgG1/kappa constant regions) VH: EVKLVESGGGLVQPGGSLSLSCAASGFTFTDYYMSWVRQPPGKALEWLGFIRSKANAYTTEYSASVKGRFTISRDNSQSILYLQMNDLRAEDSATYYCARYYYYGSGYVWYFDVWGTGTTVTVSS VL: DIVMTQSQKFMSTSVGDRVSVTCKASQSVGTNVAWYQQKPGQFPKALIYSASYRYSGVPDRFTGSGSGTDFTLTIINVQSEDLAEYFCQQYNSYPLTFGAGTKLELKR
54300

Requested read-out: Maximum mean fluorescence intensity. Entry: S009-F7.61.21 (antibody, human IgG1, kappa, V domains shown, human-murine chimeric antibody, human IgG1/kappa constant regions) VH: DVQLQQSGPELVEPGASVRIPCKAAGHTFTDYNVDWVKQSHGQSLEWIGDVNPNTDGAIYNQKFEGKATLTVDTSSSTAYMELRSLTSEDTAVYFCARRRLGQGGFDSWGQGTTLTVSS VL: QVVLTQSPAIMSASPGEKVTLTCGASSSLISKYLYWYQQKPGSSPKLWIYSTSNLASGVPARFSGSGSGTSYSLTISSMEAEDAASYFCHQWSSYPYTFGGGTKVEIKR
39800
